The origin of these recorded values is patent US10399940B2.

target_system: F508delCFTR (Homo sapiens, UniProt P13569, DEL508-508)
Construct: expressed in transfected cells; host or cells: CFBE41o- (human lung derived epithelial cell line), doxycycline-inducible expression
Sequence (P13569 with tags, fused parts or gaps DEL508-508): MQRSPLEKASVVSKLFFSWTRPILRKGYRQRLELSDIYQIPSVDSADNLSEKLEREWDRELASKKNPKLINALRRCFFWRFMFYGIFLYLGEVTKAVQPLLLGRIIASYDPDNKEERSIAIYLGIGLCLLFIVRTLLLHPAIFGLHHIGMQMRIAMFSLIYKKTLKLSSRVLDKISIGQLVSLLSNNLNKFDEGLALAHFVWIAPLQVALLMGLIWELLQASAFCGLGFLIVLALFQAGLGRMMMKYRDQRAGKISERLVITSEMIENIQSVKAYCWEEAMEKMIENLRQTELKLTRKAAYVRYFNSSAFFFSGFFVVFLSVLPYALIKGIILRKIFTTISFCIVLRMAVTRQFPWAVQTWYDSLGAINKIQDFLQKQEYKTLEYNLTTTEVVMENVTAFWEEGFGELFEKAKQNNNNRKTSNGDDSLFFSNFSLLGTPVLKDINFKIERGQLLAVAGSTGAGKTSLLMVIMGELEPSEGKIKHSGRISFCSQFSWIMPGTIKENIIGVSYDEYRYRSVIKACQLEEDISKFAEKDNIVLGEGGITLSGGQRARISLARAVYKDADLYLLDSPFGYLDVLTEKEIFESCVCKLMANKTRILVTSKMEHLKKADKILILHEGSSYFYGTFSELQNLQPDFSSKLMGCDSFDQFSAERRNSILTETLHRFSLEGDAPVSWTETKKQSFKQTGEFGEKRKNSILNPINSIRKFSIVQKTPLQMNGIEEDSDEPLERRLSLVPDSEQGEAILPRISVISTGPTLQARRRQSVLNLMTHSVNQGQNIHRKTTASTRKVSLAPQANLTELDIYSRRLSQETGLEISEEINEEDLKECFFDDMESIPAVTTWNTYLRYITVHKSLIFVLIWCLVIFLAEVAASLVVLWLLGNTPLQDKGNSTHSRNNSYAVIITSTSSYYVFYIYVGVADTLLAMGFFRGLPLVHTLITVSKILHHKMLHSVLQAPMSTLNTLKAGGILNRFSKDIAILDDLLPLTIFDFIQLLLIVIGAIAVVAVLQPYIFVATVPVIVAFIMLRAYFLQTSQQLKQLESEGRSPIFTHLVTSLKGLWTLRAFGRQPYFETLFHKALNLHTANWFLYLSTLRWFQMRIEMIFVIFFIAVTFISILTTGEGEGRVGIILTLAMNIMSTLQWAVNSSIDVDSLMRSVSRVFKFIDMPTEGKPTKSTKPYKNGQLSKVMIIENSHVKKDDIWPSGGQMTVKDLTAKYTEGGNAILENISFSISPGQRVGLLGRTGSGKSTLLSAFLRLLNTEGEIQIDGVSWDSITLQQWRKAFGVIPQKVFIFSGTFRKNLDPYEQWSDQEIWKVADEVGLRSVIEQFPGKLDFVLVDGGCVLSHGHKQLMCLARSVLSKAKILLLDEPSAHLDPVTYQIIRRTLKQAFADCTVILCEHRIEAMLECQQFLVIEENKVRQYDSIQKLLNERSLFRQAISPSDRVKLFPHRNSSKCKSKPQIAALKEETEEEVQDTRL
procedure_text: Cell Surface Expression-Horse Radish Peroxidase (CSE-HRP) assay
Assay type: cell-based
settings: CFBE41o-F508delCFTR-HRP cells; with co-corrector (2 μM of 3-[(2R,4R)-4-({[1-(2,2-difluoro-1,3-benzodioxol-5-yl)cyclopropyl]carbonyl}amino)-7-methoxy-3,4-dihydro-2H-chromen-2-yl]benzoic acid); read-out: EC50 (with co-corrector)
pEC50: −log10 of the molar value.
endpoint_name: pEC50

>  <compound>
CCc1ccccc1[C@H]1[C@@H](OCC#Cc2cc(C(F)(F)F)cnc2OC)[C@H](C(C)(C)C)[C@@H](C(=O)O)N1C(=O)[C@@H]1CCCCO1 [Example 278]

>  <pEC50>
> 6.00

$$$$
>  <compound>
CC(C)Oc1ncccc1[C@H]1[C@@H](OCc2cc3cc(C4CCC4)ccc3o2)[C@H](C(C)(C)C)[C@@H](C(=O)O)N1C(=O)[C@@H]1CCCCO1 [Example 296]

>  <pEC50>
> 6.00

$$$$
>  <compound>
COc1ncc(C2CCC2)cc1CO[C@H]1[C@H](C(C)(C)C)[C@@H](C(=O)O)N(C(=O)C2CCCCC2)[C@H]1c1cccc2c1OC(C)(C)C2 [Example 256]

>  <pEC50>
> 6.00

$$$$
>  <compound>
COc1nc2ccccc2cc1CO[C@H]1[C@H](C(C)(C)C)[C@@H](C(=O)O)N(C(=O)[C@@H]2CCCO2)[C@H]1c1ccnn1C(C)C [Example 148]

>  <pEC50>
< 5.00

$$$$
>  <compound>
COc1ccc(C(F)(F)F)cc1[C@@](O)(CO)CO[C@H]1[C@H](C(C)(C)C)[C@@H](C(=O)O)N(C(=O)[C@@H]2CCCCO2)[C@H]1c1ccccc1C [Example 263]

>  <pEC50>
5.00 to 6.00

$$$$

Next:
compound COc1ncc(C(F)(F)F)cc1CO[C@H]1[C@H](C(C)(C)C)[C@@H](C(=O)O)N(C(=O)[C@@H]2CCCO2)[C@H]1c1ccccc1Cl [Example 115] , pEC50 observed: > 6.00
